Here, each record is paired with measured normalized growth data.
Assay: chemical genetic growth profiling, strain panel (AID 1159580);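 also: tested at 20 µM; growth read once vehicle control cultures reached saturation at 30 °C; 1 = growth at the plate median or of vehicle wells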
Details: S. cerevisiae deletion strains, growth OD, locus YNL067W, strain RPL9B, stronger effect = lower value
Screen size: about 5,500 compounds; about 2,000 (36%) were called active. About 18% were inconclusive and are not listed. The list shows a part of the results.
Would you mind answering with just the numeric figure?

As a guide, the following entries are already answered.
C=CCSCC1Nc2cc(Cl)c(S(N)(=O)=O)cc2S(=O)(=O)N1 (centres undefined) : 1.01
CC(C)NNC(=O)c1ccncc1 : 1.01
CC[C@H](C)C(=O)O[C@H]1CCC=C2C=C[C@H](C)C(CCC3C[C@@H](O)CC(=O)O3)[C@H]21 (some centres undefined) : 1
NC[C@@H]1CC[C@@H](N)[C@@H](O[C@H]2[C@H](O)[C@@H](O[C@H]3O[C@H](CO)[C@@H](O)[C@H](N)[C@H]3O)[C@H](N)C[C@@H]2N)O1 : 0.981

Field: next compound
Item CC[C@H](C)C(=O)O[C@H]1C[C@@H](C)C=C2C=C[C@H](C)[C@H](CC[C@@H]3C[C@@H](O)CC(=O)O3)[C@H]21 has what recorded normalized growth?
1.01

====

Here, each record is paired with measured normalized growth data.
Assay: chemical genetic growth profiling, strain panel (AID 1159580)
Settings: S. cerevisiae deletion strains, growth OD, locus YCL029C, strain bik1, stronger effect = lower value
Hit rate of the full screen: of about 5,500 compounds, about 2,000 (36%) were called active. Inconclusive results (about 18%) are left out. The list shows a part of the results.
Would you mind answering with just the numeric figure?

CC(C)COCC(CN(Cc1ccccc1)c1ccccc1)N1CCCC1 (stereo not drawn) : 0.978

Item OCc1ccccc1O has what recorded normalized growth?
0.995

Item NS(=O)(=O)c1cc2c(cc1Cl)NC(C(Cl)Cl)NS2(=O)=O (stereo not drawn) has what recorded normalized growth?
1.02

====

Here, each record is paired with measured normalized growth data.
Assay: chemical genetic growth profiling, strain panel (AID 1159580)
Conditions: S. cerevisiae deletion strains, growth OD, locus YMR125W, strain sto1, stronger effect = lower value
In all, about 5,500 compounds went through this assay and about 2,000 (36%) were called active. Roughly 18% stayed inconclusive and do not appear here. Some of the results follow.
Would you mind answering with just the numeric figure?

As a guide, the following entries are already answered.
COc1ccc(CCN2CCC(Nc3nc4ccccc4n3Cc3ccc(F)cc3)CC2)cc1 : 0.964
CCCCN(CCCC)CCCOC(=O)c1ccc(N)cc1 : 0.992
CCN(CC)CCOC(=O)c1ccc(N)cc1 : 0.962
Cc1ccc(C)c(OCCCC(C)(C)C(=O)O)c1 : 1.03
O=C1OC2(c3ccc(O)cc3Oc3cc(O)ccc32)c2ccccc21 : 1.02

Item CCCOc1ccc(C(=O)OCCN(CC)CC)cc1N has what recorded normalized growth?
1.02

====

Assay: chemical genetic growth profiling, strain panel (AID 1159580)
Conditions: S. cerevisiae deletion strains, growth OD, locus YNL233W, strain BNI4, stronger effect = lower value
Among all 5,500 compounds or so, about 2,000 (36%) were called active. Roughly 18% stayed inconclusive and do not appear here. The list shows a part of the results.
reported_property: normalized growth
Would you mind answering with just the numeric figure?

Cc1cccc(C(=O)O)c1O : 1.02

Item Cc1cc(NC(=O)C2=C(O)c3ccccc3S(=O)(=O)N2C)no1 has what recorded normalized growth?
1.04

Item O=C(O)c1cc2cc(Cc3cccnc3)ccc2o1 has what recorded normalized growth?
1

====

Experiment: chemical genetic growth profiling, strain panel (AID 1159580)
Settings: S. cerevisiae deletion strains, growth OD, locus YDL074C, strain BRE1
Out of some 5,500 compounds screened, about 2,000 (36%) were called active. Roughly 18% stayed inconclusive and do not appear here. No stated cut-off is given here; in the data, active means normalized growth mostly below about 0.91 (no sharp cut-off); inconclusive means no clear call, values can overlap the other calls; inactive means mostly above about 0.92. Some of the results follow.
Choose the fitting class; nothing outside true (1) = active, false (0) = inactive is accepted.

CO/N=C(\C(=O)N[C@@H]1C(=O)N2C(C(=O)O)=C(COC(C)=O)CS[C@H]12)c1csc(N)n1 : false (0)
CC(C)(C)CC(C)(C)c1ccc(O)c(Cc2ccc(Cl)cc2Cl)c1 : false (0)
COc1c2ccoc2c(OC)c2oc(=O)ccc12 : false (0)

# lookup: test call for CO/N=C(\C(=O)N[C@@H]1C(=O)N2C(C(=O)O)=C(CSc3nc(=O)c(O)nn3C)CS[C@H]12)c1csc(N)n1
false (0)

# lookup: test call for O=C(Cn1ccnc1[N+](=O)[O-])NCCO
false (0)

# lookup: test call for CO/N=C(\C(=O)NC1C(=O)N2C(C(=O)O)=C(COC(N)=O)CSC12)c1ccco1 (centres undefined)
true (1)

# lookup: test call for O=C1NC(=O)C(=O)C(=O)N1
false (0)

# lookup: test call for COc1ccc2c(c1O)OCC1c3cc4c(cc3OC21)OCO4 (centres undefined)
false (0)

# lookup: test call for C=C1C(=O)O[C@@H]2C[C@@]3(C)CCC[C@H](C)C3=C[C@H]12
true (1)

# lookup: test call for CC1(C)C2CC(=O)[C@]3(C)C(CC[C@@]4(C)[C@H](c5ccoc5)OC(=O)[C@H]5O[C@]543)[C@@]2(C)C=C[C@@H]1O (some centres undefined)
false (0)

# lookup: test call for Cc1ccc(Cl)c(Nc2ccccc2C(=O)O)c1Cl
false (0)

# lookup: test call for CC(=O)OCC(COC(C)=O)OC(C)=O
false (0)

# lookup: test call for C=CCSCC1Nc2cc(Cl)c(S(N)(=O)=O)cc2S(=O)(=O)N1 (centres undefined)
false (0)

# lookup: test call for O=S1OCC2C(CO1)C1(Cl)C(Cl)=C(Cl)C2(Cl)C1(Cl)Cl (centres undefined)
false (0)

# lookup: test call for Oc1ccc(Cl)cc1
false (0)

# lookup: test call for CC(=O)OCC(OC(C)=O)C(OC(C)=O)C(OC(C)=O)C(OC(C)=O)C(COC(C)=O)OC(C)=O (centres undefined)
false (0)

# lookup: test call for CCN(CC)C(=O)c1cccc(C)c1
false (0)

====

Here, each record is paired with measured normalized growth data.
Assay: chemical genetic growth profiling, strain panel (AID 1159580);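 also: tested at 20 µM; growth read once vehicle control cultures reached saturation at 30 °C; 1 = growth at the plate median or of vehicle wells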
Conditions: S. cerevisiae deletion strains, growth OD, locus YLR268W, strain sec22, stronger effect = lower value
The campaign covered roughly 5,500 compounds. About 2,000 (36%) were called active. About 18% were inconclusive and are not listed. Some of the results follow.
Would you mind answering with just the numeric figure?

O=C(O)CN(CC(=O)O)Cc1cc2c(-c3ccccc3C(=O)O)c3cc(CN(CC(=O)O)CC(=O)O)c(=O)cc-3oc2cc1O : 1.01
CCC(C)c1cnc(CC(C)C)c(=O)n1O (stereo not drawn) : 1.01

Item COC(=O)C[C@H]1C(C)(C)C(=O)[C@@H]2CC3=C(CC[C@]4(C)C3=CC(=O)O[C@H]4c3ccoc3)[C@@]1(C)C2=O has what recorded normalized growth?
1.01

====

Test: chemical genetic growth profiling, strain panel (AID 1159580);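 also: tested at 20 µM; growth read once vehicle control cultures reached saturation at 30 °C; 1 = growth at the plate median or of vehicle wells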
Conditions: S. cerevisiae deletion strains, growth OD, locus YOL012C, strain htz1
In all, about 5,500 compounds went through this assay and about 2,000 (36%) were called active. About 18% were inconclusive and are not listed. The list shows a part of the results.
Quick rule: normalized growth of at least 0.9 means T, below that means F.

C/C1=C\CCC(=O)C2CC(C)(C)C2CC1 (configuration not stated) : T

Is reported normalized growth greater than or equal to 0.9 here: C=C1CCC(C2CC(=O)OC2=O)C(=O)CCC2C1CC2(C)C (configuration not stated)
T

Is reported normalized growth greater than or equal to 0.9 here: Nc1ccn(C2O[C@H](CO)[C@@H](O)[C@@H]2O)c(=O)n1 (some centres not stated)
T

Is reported normalized growth greater than or equal to 0.9 here: NC[C@@H]1CC[C@@H](N)[C@@H](O[C@H]2[C@H](O)[C@@H](O[C@H]3O[C@H](CO)[C@@H](O)[C@H](N)[C@H]3O)[C@H](N)C[C@@H]2N)O1
F

Is reported normalized growth greater than or equal to 0.9 here: CCOC(=O)[C@H](CCc1ccccc1)N[C@@H](C)C(=O)N1[C@H](C(=O)O)C[C@@H]2CCC[C@@H]21
T

Is reported normalized growth greater than or equal to 0.9 here: CC1(C)C2(Cl)C(Cl)C(Cl)C(Cl)(C(Cl)Cl)C1(Cl)C2Cl (configuration not stated)
T

Is reported normalized growth greater than or equal to 0.9 here: COc1c2ccoc2c(OC)c2oc(=O)ccc12
F

Is reported normalized growth greater than or equal to 0.9 here: OCc1ccccc1O
F

====

Assay: chemical genetic growth profiling, strain panel (AID 1159580);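 also: tested at 20 µM; growth read once vehicle control cultures reached saturation at 30 °C; 1 = growth at the plate median or of vehicle wells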
Details: S. cerevisiae deletion strains, growth OD, locus YPL256C, strain CLN2, stronger effect = lower value
The whole screen tested about 5,500 compounds, of which about 2,000 (36%) were called active. About 18% were inconclusive and are not listed. Some of the results follow.
Here, each record is paired with measured normalized growth data.
Would you mind answering with just the numeric figure?

As a guide, the following entries are already answered.
Cc1coc2c1C(=O)C(=O)c1c-2ccc2c1CCCC2(C)C : 0.894
CC(C)[C@@H]1CC[C@@H](C)C[C@H]1O : 0.985
Cc1cccc(Nc2ccccc2C(=O)O)c1C : 0.874
CC(C)C(C)/C=C/C(C)C1CCC2C3=CC=C4CC(O)CCC4(C)C3CCC21C (configuration not stated) : 1.02
C/C1=C\CCC(=O)C2CC(C)(C)C2CC1 (configuration not stated) : 0.999
CCNC(=O)CC[C@H](N)C(=O)O : 1.01
O=[N+]([O-])c1ccc2oc(C(O)c3cccc(Cl)c3)cc2c1 (configuration not stated) : 0.996
COc1cc2c(cc1OC)C1Cc3ccc(OC)c(OC)c3CN1CC2 (configuration not stated) : 1

Item COC(=O)C1=CCCN(C)C1 has what recorded normalized growth?
1

Item O=C(Cn1ccnc1[N+](=O)[O-])NCCO has what recorded normalized growth?
0.977

Item COc1c(OC)c2occc2c2oc(=O)ccc12 has what recorded normalized growth?
0.973

Item CC(C)COCC(CN(Cc1ccccc1)c1ccccc1)N1CCCC1 (configuration not stated) has what recorded normalized growth?
0.98
